Where do these numbers come from? They come from patent US20250282885A1.

target or system: T1, human Sdc2 (human, UniProt P34741 19-144, limits assumed)
T1 construct: Antigen of the Octet tandem binning, loaded on biosensors at 100 nM; also called huSdc2; hSdc2
T1 sequence (P34741 19-144 limits assumed): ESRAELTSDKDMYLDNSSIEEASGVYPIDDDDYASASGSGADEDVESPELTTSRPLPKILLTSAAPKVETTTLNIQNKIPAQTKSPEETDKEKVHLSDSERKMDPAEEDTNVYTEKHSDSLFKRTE
experiment notes: Octet tandem binning; saturating Ab f6 19844-R3-P3-E09
Listed next: entries and their corresponding raw competing-Ab binding signal.
quantity name: raw competing-Ab binding signal

binder	quantity name	assay value
R4M-P1-A10 (antibody, human IgG1, kappa, V domains shown) VH: EVQLVETGGGVVQPGRSLRLSCAASGFTFSSYAMHWVRQAPGKGLEWVAVISYDGSNKYYADSVKGRFTISRDNSKNTLYLQMNSLRAEDTAVYYCARDRGWADAFDIWGQGTMVTVSS VL: QAGLTQPPSVSKGLRQTATLTCTGNSNNVGYQGAVWLLQYQGHPPKVLSNRNNDRPSGISERLSASRSGNTASLTITGLQPEDEGDYFCAAWDGSLRGWVFGGGTKLTVLR	raw competing-Ab binding signal	0.203
R3-P3-C11 (antibody, human IgG1, kappa, V domains shown, human IgG1 kappa from the phage campaign) VH: EVQLVESGGGLVQPGRSLRLACEASGFTFNNYAVHWVRQAPGKGLEWVAVISYDGTNKYYSDSMKGRFTISRDNSKNTLYLQINSLRVEDTAVYFCARGNYVRRDSFDIWGQGTMVTVSS VL: DIQMTQSPPSLSASVGDRVTITCRASQSISSYLNWYQQKPGKAPKLLIYGASSLQSGVPLRFSGSGSGADFTLTISSLQPEDFATYYCQQSYISPITFGQGTRLEIKR	raw competing-Ab binding signal	0.299
